Origin of values: patent US7749997B2

experiment: Half-life in rat after oral administration, plasma levels by HPLC/mass spectrometry; type: in vivo, rat (for example Han Wistar rat); conditions: Han Wistar, typical dose between 2.5 and 5 mg/kg, suspension in HPMC/Tween, plasma levels 0.25-24 hours
Value type: half-life (h)
Write the answer as a number in h, unit excluded.

Q: // lookup half-life for "CC1(C)Oc2ncnc(N)c2N=C1c1ccc(C23CCC(CC(=O)O)(CC2)CC3)cc1"
Result: 9.8
